test system: PDC 899932-113-R3-J6 complex spheroid viability; assay: Anticancer human tumor 899932-113-R3-J6-PDC patient-derived melanoma cell line growth inhibition [RAS]; conditions: second compound 0.1 µM; first compound 0.1 µM; stronger effect = lower value
Param label: returns MET when viability, T/C < 90%, returns NOT MET otherwise, including exact equality.

Answered examples (2):
>  <compound>
Cc1nc(N2CCC3(CC2)COC(C)C3N)c(CO)nc1Sc1ccnc(N)c1Cl (stereo not given) + C=CC(=O)N1CCN(c2nc(OCC3CCCN3C)nc3c(F)c(-c4nc(N)cc(C)c4C(F)(F)F)c(Cl)cc23)C(C)C1

>  <assay-system>
PDC 899932-113-R3-J6 complex spheroid viability

>  <category-label>
NOT MET

$$$$
>  <compound>
CC(Nc1ccc2c(c1)OCCn1cc(N3C(=O)OCC3C(F)F)nc1-2)C(N)=O (stereo not given) + C#Cc1c(F)ccc2cc(O)cc(-c3ncc4c(N5CC6CCC(C5)N6)nc(OCC56CCCN5CC(F)C6)nc4c3F)c12

>  <assay-system>
PDC 899932-113-R3-J6 complex spheroid viability

>  <category-label>
MET

$$$$

Prompt line: Find out if reported viability, T/C for CC(C)NCC(C(=O)N1CCN(c2ncnc3c2C(C)CC3O)CC1)c1ccc(Cl)cc1 (stereo not given) + C#Cc1c(F)ccc2cc(O)cc(-c3ncc4c(N5CC6CCC(C5)N6)nc(OCC56CCCN5CC(F)C6)nc4c3F)c12 is less than 90%
Response line: NOT MET

Prompt line: Dear colleague, could you confirm whether viability, T/C of CC1(O)CCCC1n1c(=O)c(C(F)F)cc2cnc(NC3CCN(S(C)(=O)=O)CC3)nc21 (stereo not given) + C#Cc1c(F)ccc2cc(O)cc(-c3ncc4c(N5CC6CCC(C5)N6)nc(OCC56CCCN5CC(F)C6)nc4c3F)c12 falls below 90%? Thanks.
Response line: MET

Prompt line: Given CC(C)NCC(C(=O)N1CCN(c2ncnc3c2C(C)CC3O)CC1)c1ccc(Cl)cc1 (stereo not given) + C=CC(=O)N1CCN(c2nc(OCC3CCCN3C)nc3c(F)c(-c4nc(N)cc(C)c4C(F)(F)F)c(Cl)cc23)C(C)C1 , is recorded viability, T/C strictly lower than 90%?
Response line: NOT MET

====

system: PDC 899932-113-R3-J6 complex spheroid viability; assay: Anticancer human tumor 899932-113-R3-J6-PDC cell line growth inhibition [RAS]; settings: second compound 0.00316 µM; first compound 0.1 µM; stronger effect = lower value;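 further: spheroids exposed to agents for seven days before readout; 100% = DMSO vehicle control wells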
readout-kind: viability, T/C (%)
Give the number; % is assumed, so skip it.

Prompt line: Consider the molecule CC1(O)CCCC1n1c(=O)c(C(F)F)cc2cnc(NC3CCN(S(C)(=O)=O)CC3)nc21 (stereo not given) + C=CC(=O)N1CCN(c2nc(OCC3CCCN3C)nc3c(F)c(-c4nc(N)cc(C)c4C(F)(F)F)c(Cl)cc23)C(C)C1 and give its measured viability, T/C.
Response line: 73.6

Prompt line: For NC1c2ccccc2OC12CCN(c1cnc3c(N4CCCc5ncccc54)n[nH]c3n1)CC2 (stereo not given) + C=CC(=O)N1CCN(c2nc(OCC3CCCN3C)nc3c(F)c(-c4nc(N)cc(C)c4C(F)(F)F)c(Cl)cc23)C(C)C1 , what is its reported viability, T/C?
Response line: 107

Prompt line: Requested field: viability, T/C. Item: Cc1nc(N2CCC3(CC2)COC(C)C3N)c(CO)nc1Sc1ccnc(N)c1Cl (stereo not given) + C=CC(=O)N1CCN(c2nc(OCC3CCCN3C)nc3c(F)c(-c4nc(N)cc(C)c4C(F)(F)F)c(Cl)cc23)C(C)C1
Response line: 96.4

Prompt line: Reported viability, T/C, molecule CCN1CCN(Cc2ccc(Nc3ncc(F)c(-c4cc(F)c5nc(C)n(C(C)C)c5c4)n3)nc2)CC1 + C=CC(=O)N1CCN(c2nc(OCC3CCCN3C)nc3c(F)c(-c4nc(N)cc(C)c4C(F)(F)F)c(Cl)cc23)C(C)C1 : ____
Response line: 78

Prompt line: Any idea what viability, T/C was measured for CC(C)NCC(C(=O)N1CCN(c2ncnc3c2C(C)CC3O)CC1)c1ccc(Cl)cc1 (stereo not given) + C=CC(=O)N1CCN(c2nc(OCC3CCCN3C)nc3c(F)c(-c4nc(N)cc(C)c4C(F)(F)F)c(Cl)cc23)C(C)C1 ?
Response line: 97.3

====

tested on: PDC 899932-113-R3-J6 complex spheroid viability; assay: Anticancer human tumor 899932-113-R3-J6-PDC cell line growth inhibition [RAS]; settings: second compound 3.16 µM; first compound 0.316 µM; stronger effect = lower value;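 further: spheroids exposed to agents for seven days before readout; 100% = DMSO vehicle control wells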
readout-kind: viability, T/C (%)
Number only, in %; omit the unit.

Past entries and their recorded results:
>  <compound>
O=C(c1ccc(F)c(F)c1Nc1ccc(I)cc1F)N1CC(O)([C@@H]2CCCCN2)C1 + C#Cc1c(F)ccc2cc(O)cc(-c3ncc4c(N5CC6CCC(C5)N6)nc(OCC56CCCN5CC(F)C6)nc4c3F)c12

>  <viability, T/C, %>
2.09

$$$$
>  <compound>
CCN1CCN(Cc2ccc(Nc3ncc(F)c(-c4cc(F)c5nc(C)n(C(C)C)c5c4)n3)nc2)CC1 + C#Cc1c(F)ccc2cc(O)cc(-c3ncc4c(N5CC6CCC(C5)N6)nc(OCC56CCCN5CC(F)C6)nc4c3F)c12

>  <viability, T/C, %>
71.4

$$$$
>  <compound>
CC(Nc1ccc2c(c1)OCCn1cc(N3C(=O)OCC3C(F)F)nc1-2)C(N)=O (stereo not given) + C#Cc1c(F)ccc2cc(O)cc(-c3ncc4c(N5CC6CCC(C5)N6)nc(OCC56CCCN5CC(F)C6)nc4c3F)c12

>  <viability, T/C, %>
71.4

$$$$
>  <compound>
C=CC(=O)N1CCN(c2nc(OCC3CCCN3C)nc3c(F)c(-c4nc(N)cc(C)c4C(F)(F)F)c(Cl)cc23)C(C)C1 (stereo not given) + C#Cc1c(F)ccc2cc(O)cc(-c3ncc4c(N5CC6CCC(C5)N6)nc(OCC56CCCN5CC(F)C6)nc4c3F)c12

>  <viability, T/C, %>
124

$$$$
>  <compound>
C=CC(=O)Nc1cc(Nc2nccc(-c3cn(C)c4ccccc34)n2)c(OC)cc1N(C)CCN(C)C + C#Cc1c(F)ccc2cc(O)cc(-c3ncc4c(N5CC6CCC(C5)N6)nc(OCC56CCCN5CC(F)C6)nc4c3F)c12

>  <viability, T/C, %>
112

$$$$

Prompt line: Using the record for Nc1ccn(C2OC(CO)C(O)C2(F)F)c(=O)n1 (stereo not given) + C#Cc1c(F)ccc2cc(O)cc(-c3ncc4c(N5CC6CCC(C5)N6)nc(OCC56CCCN5CC(F)C6)nc4c3F)c12 , report its viability, T/C.
Response line: 17.5

====

tested on: PDC 899932-113-R3-J6 complex spheroid viability; test: Anticancer human tumor 899932-113-R3-J6-PDC cell line growth inhibition [RAS]; details: second compound 0.000949 µM; first compound 0.03 µM; stronger effect = lower value;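 further: spheroids exposed to agents for seven days before readout; 100% = DMSO vehicle control wells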
readout-kind: viability, T/C (%)
Form entry: value (%) — number only.

Example results:
>  <compound>
CCc1c2c(nc3ccc(O)cc13)-c1cc3c(c(=O)n1C2)COC(=O)[C@]3(O)CC + CCn1c(-c2cccnc2C(C)OC)c2c3cc(ccc31)N1CCOC(CC(NC(=O)C(C(C)C)N(C)C(=O)C3(F)CCN(C(=O)C#CC(C)(C)N(C)C)CC3)C(=O)N3CCCC(N3)C(=O)OCC(C)(C)C2)C1

>  <readout-kind>
viability, T/C

>  <result-units>
%

>  <reported>
46.1

$$$$
>  <compound>
CCc1c2c(nc3ccc(O)cc13)-c1cc3c(c(=O)n1C2)COC(=O)[C@]3(O)CC + CCn1c(-c2cc(N3CCN(C)CC3)cnc2C(C)OC)c2c3cc(ccc31)-c1csc(n1)CC(NC(=O)C1CC1C)C(=O)N1CCCC(N1)C(=O)OCC(C)(C)C2

>  <readout-kind>
viability, T/C

>  <result-units>
%

>  <reported>
26.9

$$$$
>  <compound>
CC1(C)CCC(Nc2ncc(C(F)(F)F)c(-c3c[nH]c4c(P(C)(C)=O)c(C#N)ccc34)n2)CN1 (centres undefined) + CCn1c(-c2cc(N3CCN(C)CC3)cnc2C(C)OC)c2c3cc(ccc31)-c1csc(n1)CC(NC(=O)C1CC1C)C(=O)N1CCCC(N1)C(=O)OCC(C)(C)C2

>  <readout-kind>
viability, T/C

>  <result-units>
%

>  <reported>
26.1

$$$$

Turning now to a further record.
Prompt line: What does the record list as viability, T/C for CC1(C)CCC(Nc2ncc(C(F)(F)F)c(-c3c[nH]c4c(P(C)(C)=O)c(C#N)ccc34)n2)CN1 (centres undefined) + CCn1c(-c2cccnc2C(C)OC)c2c3cc(ccc31)N1CCOC(CC(NC(=O)C(C(C)C)N(C)C(=O)C3(F)CCN(C(=O)C#CC(C)(C)N(C)C)CC3)C(=O)N3CCCC(N3)C(=O)OCC(C)(C)C2)C1 ?
Response line: 52.4

Hello, the source for this data is PubChem BioAssay AID2060895, in case you need it.
